Data provenance: ChEMBL document CHEMBL5523690

test: Hemolytic activity in sheep RBC assessed as survival rate at 25 uM measured after 1 hr in presence of colistin by fluorescence microscopic analysis relative to control; type: toxicity, cell-based, Ovis aries, Erythrocyte; details: sheep red blood cells (erythrocytes), read-out: Survival
observable: viability at 1 h, 25 µM (%)
// return numeric value only (unit: %, not printed)

Query: Given "O=C(NCCc1c[nH]c2ccccc12)Nc1cccc(F)c1" , respond with its viability at 1 h, 25 µM.
Response: 96

----------
test system: Klebsiella pneumoniae; assay: Synergistic antibacterial activity against Klebsiella pneumoniae BA03057 assessed as fractional inhibitory concentration index incubated for 24 hrs under aerobic condition in presence of colistin by checkerboard assay; format: functional
observable: fractional inhibitory concentration index (FICI)
In your answer, state the number alone without any accompanying words.

Consider the reported fractional inhibitory concentration index (FICI) for these compounds:
O=C(NCCc1c[nH]c2ccccc12)Nc1ccccc1Br :: 0.31
O=C(NCCc1c[nH]c2ccccc12)Nc1ccc(C(F)(F)F)cc1 :: 0.167
O=C(NCCc1c[nH]c2ccccc12)Nc1cccc(F)c1 :: 0.073
O=C(NCCc1c[nH]c2ccccc12)Nc1cccc(Cl)c1 :: 0.062
CCCCCCNC(=O)NCCc1c[nH]c2ccccc12 :: 0.143

Then there is this compound:
Query: Read the entry "O=C(NCCc1c[nH]c2ccccc12)Nc1ccc(Cl)cc1" and write its reported fractional inhibitory concentration index (FICI).
Response: 0.276

----------
system: Pseudomonas aeruginosa; assay: Antibacterial activity against Pseudomonas aeruginosa ATCC27853 assessed as inhibition of visible bacterial growth measured after 20 hrs under aerobic condition by two fold serial dilution assay; type: functional
observable: MIC

See these solved cases before continuing.
O=C(NCCc1c[nH]c2ccccc12)Nc1cc(Cl)cc(Cl)c1 :: > 128 µg/mL
O=C(NCCc1c[nH]c2ccccc12)Nc1cccc(Br)c1 :: > 128 µg/mL
O=C(NCCc1c[nH]c2ccccc12)Nc1ccccc1Br :: > 128 µg/mL
Cc1ccc(NC(=O)NCCc2c[nH]c3ccccc23)cc1 :: > 128 µg/mL
O=C(NCCc1c[nH]c2ccccc12)Nc1ccc(C(F)(F)F)cc1 :: > 128 µg/mL

Query: For Pseudomonas aeruginosa, give MIC of the listed compound: "O=C(NCCc1c[nH]c2ccccc12)Nc1ccc(F)cc1"
Response: > 128 µg/mL

Query: Provide the reported MIC (system: Pseudomonas aeruginosa) for "O=C(NCCc1c[nH]c2ccccc12)Nc1ccccc1"
Response: > 128 µg/mL

Query: Look up and report measured MIC (Pseudomonas aeruginosa) for the following compound: "O=C(NCCc1c[nH]c2ccccc12)Nc1ccccc1F"
Response: > 128 µg/mL

Query: Report value: MIC, system: Pseudomonas aeruginosa, compound: "CCCNC(=O)NCCc1c[nH]c2ccccc12"
Response: > 128 µg/mL

Query: Lab note: Pseudomonas aeruginosa assay, enter MIC for "COc1ccc(NC(=O)NCCc2c[nH]c3ccccc23)cc1" here
Response: > 128 µg/mL

Query: Give MIC only, for "CC(C)c1ccc(NC(=O)NCCc2c[nH]c3ccccc23)cc1" , using Pseudomonas aeruginosa data.
Response: > 128 µg/mL

Query: Specify the recorded MIC for "O=C(NCCc1c[nH]c2ccccc12)Nc1ccccc1Cl" , system: Pseudomonas aeruginosa.
Response: > 128 µg/mL

Query: Please indicate recorded MIC of "O=C(NCCc1c[nH]c2ccccc12)Nc1ccc(Br)cc1" measured with Pseudomonas aeruginosa.
Response: > 128 µg/mL

Query: Look up and report measured MIC (Pseudomonas aeruginosa) for the following compound: "O=C(NCCc1c[nH]c2ccccc12)Nc1cccc(F)c1"
Response: > 128 µg/mL

Query: Enter measured MIC, system Pseudomonas aeruginosa, for the compound shown: "O=C(NCCc1c[nH]c2ccccc12)Nc1cccc(Cl)c1"
Response: > 128 µg/mL

Query: Specify MIC for "CC(C)(C)NC(=O)NCCc1c[nH]c2ccccc12" , system Pseudomonas aeruginosa.
Response: > 128 µg/mL

Query: Under Pseudomonas aeruginosa, report MIC for "O=C(NCCc1c[nH]c2ccccc12)Nc1ccc(Cl)cc1"
Response: > 128 µg/mL

Query: Write down measured MIC (Pseudomonas aeruginosa) for this compound. "O=C(NCCc1c[nH]c2ccccc12)NCc1ccccc1"
Response: > 128 µg/mL

Query: Provide MIC, tested on Pseudomonas aeruginosa, for "CCCCCCNC(=O)NCCc1c[nH]c2ccccc12" .
Response: > 128 µg/mL

----------
tested on: Pseudomonas aeruginosa; assay: Antibacterial activity against chromosomally-mediated colistin resistant Pseudomonas aeruginosa 10039 assessed as inhibition of visible bacterial growth measured after 20 hrs under aerobic condition by two fold serial dilution assay; assay type: functional
Measured MIC by item

# annotated cases, reported MIC shown
O=C(NCCc1c[nH]c2ccccc12)Nc1cccc(Br)c1 :: > 128 µg/mL
O=C(NCCc1c[nH]c2ccccc12)Nc1ccccc1F :: > 128 µg/mL
O=C(NCCc1c[nH]c2ccccc12)Nc1ccc(Br)cc1 :: > 128 µg/mL
O=C(NCCc1c[nH]c2ccccc12)Nc1ccc(F)cc1 :: > 128 µg/mL

Query: State its MIC for this compound: "O=C(NCCc1c[nH]c2ccccc12)Nc1ccccc1Br"
Response: > 128 µg/mL

Query: Hello, please tell me recorded MIC for this one: "O=C(NCCc1c[nH]c2ccccc12)Nc1ccc(Cl)cc1"
Response: > 128 µg/mL

Query: Give the reported value of MIC for this record: "CC(C)c1ccc(NC(=O)NCCc2c[nH]c3ccccc23)cc1"
Response: > 128 µg/mL

Query: For the compound "O=C(NCCc1c[nH]c2ccccc12)Nc1cccc(F)c1" , give its measured MIC value.
Response: > 128 µg/mL

Query: Report MIC for "O=C(NCCc1c[nH]c2ccccc12)Nc1cccc(Cl)c1"
Response: > 128 µg/mL

Query: Give MIC for "O=C(NCCc1c[nH]c2ccccc12)NCc1ccccc1"
Response: > 128 µg/mL

Query: Tell me measured MIC for "Cc1ccc(NC(=O)NCCc2c[nH]c3ccccc23)cc1" please.
Response: > 128 µg/mL

Query: State, in one line, measured MIC of "CC(C)(C)NC(=O)NCCc1c[nH]c2ccccc12"
Response: > 128 µg/mL

----------
system: Klebsiella pneumoniae; assay: Colistin adjuvant activity against colistin-resistant Klebsiella pneumoniae BA03057 assessed as antibacterial effect by measuring colistin MIC incubated for 24 hrs under aerobic condition by two fold serial dilution method; type: functional
observable: MIC (µg/mL)
// return numeric value only (unit: µg/mL, not printed)

Example molecules with recorded MIC:
Cc1ccc(NC(=O)NCCc2c[nH]c3ccccc23)cc1 :: 8
O=C(NCCc1c[nH]c2ccccc12)Nc1ccc(C(F)(F)F)cc1 :: 2
O=C(NCCc1c[nH]c2ccccc12)Nc1ccc(Br)cc1 :: 8
O=C(NCCc1c[nH]c2ccccc12)Nc1cc(Cl)cc(Cl)c1 :: 2

Query: Please report the measured MIC for "CCCNC(=O)NCCc1c[nH]c2ccccc12" tested on Klebsiella pneumoniae.
Response: 8

Query: Report the value of MIC obtained on Klebsiella pneumoniae for "O=C(NCCc1c[nH]c2ccccc12)Nc1cccc(Br)c1" .
Response: 8

----------
As shown below, each of these compounds has a reported MIC value.
tested on: Pseudomonas aeruginosa; assay: Antibacterial activity against chromosomally-mediated colistin resistant Pseudomonas aeruginosa 10039 assessed as inhibition of visible bacterial growth measured after 20 hrs under aerobic condition by two fold serial dilution assay; format: functional

Some compounds with recorded MIC:
O=C(NCCc1c[nH]c2ccccc12)Nc1ccccc1Cl :: > 128 µg/mL
O=C(NCCc1c[nH]c2ccccc12)Nc1cc(Cl)cc(Cl)c1 :: > 128 µg/mL
O=C(NCCc1c[nH]c2ccccc12)Nc1ccc(C(F)(F)F)cc1 :: > 128 µg/mL

Query: Specify reported MIC for the compound shown: "O=C(NCCc1c[nH]c2ccccc12)Nc1ccccc1"
Response: > 128 µg/mL

Query: Give reported MIC value for "CCCNC(=O)NCCc1c[nH]c2ccccc12"
Response: > 128 µg/mL

Query: Look up and report measured MIC for this entry: "COc1ccc(NC(=O)NCCc2c[nH]c3ccccc23)cc1"
Response: > 128 µg/mL

Query: Output MIC of "CCCCCCNC(=O)NCCc1c[nH]c2ccccc12"
Response: > 128 µg/mL
